These measurements were taken from ChEMBL document CHEMBL1153232.

target: Protein farnesyltransferase subunit beta (Homo sapiens) (UniProt P49356); test: Ratio of kcat to km for FTase in presence of farnesyl diphosphate
Sequence (P49356 whole entry): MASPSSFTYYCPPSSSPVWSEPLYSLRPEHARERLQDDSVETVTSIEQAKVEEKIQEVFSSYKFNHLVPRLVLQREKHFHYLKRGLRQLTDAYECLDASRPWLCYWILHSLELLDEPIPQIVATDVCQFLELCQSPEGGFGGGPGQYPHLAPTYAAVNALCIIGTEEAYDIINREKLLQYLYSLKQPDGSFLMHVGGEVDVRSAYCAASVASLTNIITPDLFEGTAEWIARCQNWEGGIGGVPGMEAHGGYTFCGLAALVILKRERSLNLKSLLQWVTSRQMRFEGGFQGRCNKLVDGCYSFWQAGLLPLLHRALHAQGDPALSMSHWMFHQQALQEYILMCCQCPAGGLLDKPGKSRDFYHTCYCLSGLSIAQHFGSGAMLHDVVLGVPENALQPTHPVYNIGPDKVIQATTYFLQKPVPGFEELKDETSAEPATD
Peptide text beside a SMILES is read from it. * marks the point of attachment. Dansyl = CN(C)c1cccc2c(S(=O)(=O)*)cccc12
Recorded Metric: Ratio (mM⁻¹ s⁻¹)

Worked cases, Ratio given:
{"Molecule": "CC[C@H](C)[C@H](NC(=O)[C@H](CC(N)=O)NC(=O)[C@H](CS)NC(=O)CNS(=O)(=O)c1cccc2c(N(C)C)cccc12)C(=O)N[C@@H](CC(C)C)C(=O)O (Dansyl-GCNIL-OH)", "Ratio / mM⁻¹ s⁻¹": 12}
{"Molecule": "CC[C@H](C)[C@H](NC(=O)[C@H](CS)NC(=O)CNS(=O)(=O)c1cccc2c(N(C)C)cccc12)C(=O)N[C@H](C(=O)N[C@@H](CC(C)C)C(=O)O)[C@@H](C)CC (Dansyl-GCIIL-OH)", "Ratio / mM⁻¹ s⁻¹": 43}
{"Molecule": "CC[C@H](C)[C@H](NC(=O)[C@@H](NC(=O)[C@H](CS)NC(=O)CNS(=O)(=O)c1cccc2c(N(C)C)cccc12)C(C)C)C(=O)N[C@@H](CC(C)C)C(=O)O (Dansyl-GCVIL-OH)", "Ratio / mM⁻¹ s⁻¹": 47}
{"Molecule": "CC(C)C[C@H](NC(=O)[C@@H](NC(=O)[C@H](CS)NC(=O)[C@H](CS)NC(=O)CNS(=O)(=O)c1cccc2c(N(C)C)cccc12)C(C)C)C(=O)O (Dansyl-GCCVL-OH)", "Ratio / mM⁻¹ s⁻¹": 7}
{"Molecule": "CC[C@H](C)[C@H](NC(=O)[C@H](CO)NC(=O)[C@H](CS)NC(=O)CNS(=O)(=O)c1cccc2c(N(C)C)cccc12)C(=O)N[C@@H](CC(C)C)C(=O)O (Dansyl-GCSIL-OH)", "Ratio / mM⁻¹ s⁻¹": 5}

[P] CC[C@H](C)[C@H](NC(=O)[C@H](CS)NC(=O)[C@H](CS)NC(=O)CNS(=O)(=O)c1cccc2c(N(C)C)cccc12)C(=O)N[C@@H](CC(C)C)C(=O)O (Dansyl-GCCIL-OH)
[Q] CSCC[C@H](NC(=O)[C@H](CC(C)C)NC(=O)[C@H](CS)NC(=O)CNS(=O)(=O)c1cccc2c(N(C)C)cccc12)C(=O)N[C@@H](CC(C)C)C(=O)O (Dansyl-GCLML-OH)
**Q:** Short answer wanted: higher Ratio, P or Q ? Lab note: record the label of whichever item you select.
**A:** P
(P: 23 mM⁻¹ s⁻¹, Q: 8.1 mM⁻¹ s⁻¹)

[1] CC[C@H](C)[C@H](NC(=O)[C@H](C)NC(=O)[C@H](CS)NC(=O)CNS(=O)(=O)c1cccc2c(N(C)C)cccc12)C(=O)N[C@@H](CC(C)C)C(=O)O (Dansyl-GCAIL-OH)
[2] CC[C@H](C)[C@H](NC(=O)[C@H](CS)NC(=O)CNS(=O)(=O)c1cccc2c(N(C)C)cccc12)C(=O)N[C@@H](CC(C)C)C(=O)N[C@@H](CC(C)C)C(=O)O (Dansyl-GCILL-OH)
**Q:** Lowest Ratio? choose 1 or 2 Lab note: record the label of whichever item you select.
**A:** 2
(2: 8 mM⁻¹ s⁻¹, 1: 27 mM⁻¹ s⁻¹)

###

target: Protein farnesyltransferase subunit beta (Homo sapiens) (UniProt P49356); test: Substrate activity for FTase assessed as increase in fluorescence by spectrofluorimetry in presence of farnesyl diphosphate relative to DnGCVLS; parameters: concentration or dose not given beside the values
Peptide text beside a SMILES is read from it. * marks the point of attachment. Dansyl = CN(C)c1cccc2c(S(=O)(=O)*)cccc12
Recorded Metric: Activity (%)

[P] CC(C)C[C@H](NC(=O)CNC(=O)[C@H](CC(C)C)NC(=O)[C@H](CS)NC(=O)CNS(=O)(=O)c1cccc2c(N(C)C)cccc12)C(=O)O (Dansyl-GCLGL-OH)
[Q] CC[C@H](C)[C@H](NC(=O)[C@H](C)NC(=O)[C@H](CS)NC(=O)CNS(=O)(=O)c1cccc2c(N(C)C)cccc12)C(=O)N[C@@H](CC(C)C)C(=O)O (Dansyl-GCAIL-OH)
[R] CC[C@H](C)[C@H](NC(=O)[C@H](CO)NC(=O)[C@H](CS)NC(=O)CNS(=O)(=O)c1cccc2c(N(C)C)cccc12)C(=O)N[C@@H](CC(C)C)C(=O)O (Dansyl-GCSIL-OH)
[S] CSCC[C@H](NC(=O)[C@H](CC(C)C)NC(=O)[C@H](CS)NC(=O)CNS(=O)(=O)c1cccc2c(N(C)C)cccc12)C(=O)N[C@@H](CC(C)C)C(=O)O (Dansyl-GCLML-OH)
[T] CC[C@H](C)[C@H](NC(=O)[C@@H](NC(=O)[C@H](CS)NC(=O)CNS(=O)(=O)c1cccc2c(N(C)C)cccc12)[C@@H](C)O)C(=O)N[C@@H](CC(C)C)C(=O)O (Dansyl-GCTIL-OH)
**Q:** Order required: smallest reported Activity first, largest last, for all compounds above. Response field: labels, in requested order.
**A:** P, S, R, T, Q

[I] CC(C)C[C@H](NC(=O)[C@H](CCC(N)=O)NC(=O)[C@H](CO)NC(=O)[C@H](CS)NC(=O)CNS(=O)(=O)c1cccc2c(N(C)C)cccc12)C(=O)O (Dansyl-GCSQL-OH)
[II] CC[C@H](C)[C@H](NC(=O)[C@H](CC(N)=O)NC(=O)[C@H](CS)NC(=O)CNS(=O)(=O)c1cccc2c(N(C)C)cccc12)C(=O)N[C@@H](CC(C)C)C(=O)O (Dansyl-GCNIL-OH)
**Q:** Lowest Activity? choose I or II Lab note: record the label of whichever item you select.
**A:** I
(I: 0%, II: 22%)

###

molecular target: Protein farnesyltransferase subunit beta (Homo sapiens); assay: Activity at FTase assessed as formation of farnesylated peptide after 60 mins by HPLC
Calls of active or inactive are those of the source. No cut-off for these calls is given here. Peptide text beside a SMILES is read from it. * marks the point of attachment. Dansyl = CN(C)c1cccc2c(S(=O)(=O)*)cccc12
Permitted responses: 1.0 = active, 0.0 = inactive

{"Compound": "CSCC[C@H](NC(=O)[C@H](CC(C)C)NC(=O)[C@H](CS)NC(=O)CNS(=O)(=O)c1cccc2c(N(C)C)cccc12)C(=O)N[C@@H](CC(C)C)C(=O)O (Dansyl-GCLML-OH)", "Classification": 1.0}
{"Compound": "CC(C)C[C@H](NC(=O)[C@H](CS)NC(=O)CNC(=O)[C@H](CS)NC(=O)CNS(=O)(=O)c1cccc2c(N(C)C)cccc12)C(=O)O (Dansyl-GCGCL-OH)", "Classification": 0.0}

**Q:** // return assay outcome for CC[C@H](C)[C@H](NC(=O)[C@H](CC(N)=O)NC(=O)[C@H](CS)NC(=O)CNS(=O)(=O)c1cccc2c(N(C)C)cccc12)C(=O)N[C@@H](CC(C)C)C(=O)O (Dansyl-GCNIL-OH)
**A:** 1.0

**Q:** // return assay outcome for CC(C)C[C@H](NC(=O)[C@H](CCC(N)=O)NC(=O)[C@H](CO)NC(=O)[C@H](CS)NC(=O)CNS(=O)(=O)c1cccc2c(N(C)C)cccc12)C(=O)O (Dansyl-GCSQL-OH)
**A:** 0.0

**Q:** // return assay outcome for CC[C@H](C)[C@H](NC(=O)[C@H](C)NC(=O)[C@H](CS)NC(=O)CNS(=O)(=O)c1cccc2c(N(C)C)cccc12)C(=O)N[C@@H](CC(C)C)C(=O)O (Dansyl-GCAIL-OH)
**A:** 1.0
